# OD450 ratio sample/blank listing for each entry below
# measurement.target: soluble IL-6R in cynomolgous plasma (cynomolgus monkey, UniProt A0A2K5WN54)
# measurement.description: ELISA 2, periplasmic extract; competitor IL-6; cyno plasma
I only need the number, thanks.

// worked examples, OD450 ratio sample/blank included
IL6RPMP101D6 (VHH) VHH: EVQLVESGGGLVQAGGSLRLSCTASGRTFSDYDMGWFRQAPGKERECVAIIDTNGDNTLIVGSVKGRFAISSDNAKNTVYLQMNSLLPEDTAVYTCAAGVWSSLRHTAANYWGQGTQVTVSS | 0.731
IL6RPMP108C10 (VHH) VHH: EVQLVESGGGLVQPGGSLRLSCTASGRTFSDYDMGWFRQAPGKERECVAVIDTNGDNTLTVGSVKGRFAISRDNAKNTVYLQMNSLLPEDTAVYTCAAGAWSSLRSTAANYWGQGTQVTVSS | 0.795
IL6RPMP101G2 (VHH) VHH: EVQLVESGGGLVQAGGSLRLSCAASGSIFRINAMGWYRQAPGKQRELVAAAISGGSTNYADFVKGRFTISRDNAKNTVYLQMNSLKPEDTAVYYCNALVVSHNYSDYVPFPDDYWGQGTQVTVSS | 1.04
IL6RPMP101F6 (VHH) VHH: EVQLVESGGGLVQAGGSLRLSCAASGSIFSIKAMGWYRQAPGKQRELVARITSGGSTYYADSVKGRFTISRDNAKNTVYLQMNSLKPEDTAVFYCNAIVTDSDYDLGNDYWGQGTQVTVSS | 0.0273
IL6RPMP101A5 (VHH) VHH: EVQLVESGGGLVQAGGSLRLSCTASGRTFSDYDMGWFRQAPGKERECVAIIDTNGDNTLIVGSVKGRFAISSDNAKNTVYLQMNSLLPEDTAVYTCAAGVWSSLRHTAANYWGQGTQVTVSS | 0.736
IL6RPMP104A8 (VHH) VHH: EVQLVESGGGLVQAGGSLRLSCTASGRTFSDYDMGWFRQAPGKEREFVAVIDTNGGHTLTVGSVKGRFAISSDNAKNTVYLQMNSLVPEDTAVYTCAAGAWSSLRKTAASYWGQGTQVTVSS | 0.725

Requested field: OD450 ratio sample/blank. Item: IL6RPMP101H3 (VHH) VHH: EVQLVESGGGLVQAGGSLRLSCAASGFAFDDYAIGWFRQAPGKEREGVSSISSSNGNTYYADSVRGRFTISSDNAKNTVYLQMNSLKPEDTGVYYCAAIWGIFFNEKMPVGAYDYWGQGTQVTVSS
0.859

Requested field: OD450 ratio sample/blank. Item: IL6RPMP103C3 (VHH) VHH: EVQLVESGGGLVQPGGSMRLSCAATGAIFSISTMGWYRQAPGAQREFVAGVGLDGTPNYADSVKGRFTISRDNTKNTVSLQMENLKPEDTGVYYCNIDEGMDYDGNFYDRWGQGTQVTVSS
1.1
